biological target: Wild type P450cam (Pseudomonas putida, UniProt P00183); assay: Substrate binding constant Kapp, method of Sligar
Sequence (P00183 2-415 Q344E): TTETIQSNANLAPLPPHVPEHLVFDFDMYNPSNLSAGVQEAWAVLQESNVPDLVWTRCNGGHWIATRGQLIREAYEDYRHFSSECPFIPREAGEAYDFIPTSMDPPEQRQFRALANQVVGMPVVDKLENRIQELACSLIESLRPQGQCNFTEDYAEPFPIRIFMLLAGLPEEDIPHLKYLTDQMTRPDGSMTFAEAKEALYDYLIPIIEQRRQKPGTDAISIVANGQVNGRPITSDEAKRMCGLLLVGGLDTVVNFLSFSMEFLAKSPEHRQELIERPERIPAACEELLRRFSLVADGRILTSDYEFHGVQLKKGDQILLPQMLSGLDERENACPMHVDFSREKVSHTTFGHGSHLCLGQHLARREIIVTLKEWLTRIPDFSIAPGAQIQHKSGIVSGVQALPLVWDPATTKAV
MEASURED_ENDPOINT: Kd (nM)
One number for each entry, in nM.

Q: Sample CC12CCC(CC1=O)C2(C)C (single isomer, unassigned) [camphor] — what was its Kd?
A: 600

----------
molecular target: Wild type P450cam (Pseudomonas putida); format: binding, P. putida; conditions: -- = no shift, nd = not determined
Sequence (P00183 whole entry): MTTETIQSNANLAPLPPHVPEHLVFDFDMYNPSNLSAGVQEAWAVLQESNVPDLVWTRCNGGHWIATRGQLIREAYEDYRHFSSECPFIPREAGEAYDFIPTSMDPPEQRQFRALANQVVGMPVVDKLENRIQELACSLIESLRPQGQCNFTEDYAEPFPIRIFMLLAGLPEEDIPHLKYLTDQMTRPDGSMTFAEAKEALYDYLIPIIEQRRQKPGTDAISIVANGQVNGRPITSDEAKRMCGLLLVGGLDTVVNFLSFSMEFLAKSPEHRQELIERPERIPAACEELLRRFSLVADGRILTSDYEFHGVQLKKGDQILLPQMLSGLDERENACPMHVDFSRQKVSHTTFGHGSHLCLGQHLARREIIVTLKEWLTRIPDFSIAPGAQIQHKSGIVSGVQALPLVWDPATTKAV
Sequence (P00259 whole entry, further chain): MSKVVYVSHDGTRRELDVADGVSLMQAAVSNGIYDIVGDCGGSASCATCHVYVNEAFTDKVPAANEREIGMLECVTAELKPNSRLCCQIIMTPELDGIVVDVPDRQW
Sequence (P16640 whole entry, further chain): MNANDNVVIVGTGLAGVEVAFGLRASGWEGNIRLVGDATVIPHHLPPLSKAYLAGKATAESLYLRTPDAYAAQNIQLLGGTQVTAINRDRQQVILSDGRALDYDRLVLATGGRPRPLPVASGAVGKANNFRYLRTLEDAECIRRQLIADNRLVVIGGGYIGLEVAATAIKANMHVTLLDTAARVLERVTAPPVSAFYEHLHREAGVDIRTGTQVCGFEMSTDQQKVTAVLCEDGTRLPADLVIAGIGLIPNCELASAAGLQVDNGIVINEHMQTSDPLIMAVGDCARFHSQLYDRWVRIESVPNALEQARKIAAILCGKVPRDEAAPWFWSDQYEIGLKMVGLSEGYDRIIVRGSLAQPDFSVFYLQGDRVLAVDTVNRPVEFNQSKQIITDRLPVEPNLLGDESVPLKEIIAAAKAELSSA
Criterion: Wild type ΔSpin high/low strictly under 40. Met: t. Not met: f.

Illustrative cases are given below, each with its answer.
CC1(C)[C@@H]2CC[C@@]1(C)C(=O)C2=O [(1R)-(-)-Camphorquinone]	f
CCCCCCC	t
C1=CC2C3C=CC(C3)C2C1 (centres unmarked)	f
c1ccc(Oc2ccccc2)cc1	t
c1ccc(C2CCCCC2)cc1	t

Q: For this compound, is Wild type ΔSpin high/low lower than 40? c1ccc2c(c1)CCCC2 [1,2,3,4-Tetrahydro naphthalene]
A: t

Q: # strict comparison: is reported Wild type ΔSpin high/low < 40? input = "CC1CCCCC1"
A: f

Each recorded value in this set is attributed to patent US6117661A.
